target: IRE1a (Homo sapiens, UniProt O75460); experiment: IRE1a Endoribonuclease Nanoluciferase Assay (XBP1 luciferase reporter in 293T cells); details: 293T cells transfected with XBP1 luciferase reporter, ER stressors +/- inhibitors
Sequence (O75460 19-977): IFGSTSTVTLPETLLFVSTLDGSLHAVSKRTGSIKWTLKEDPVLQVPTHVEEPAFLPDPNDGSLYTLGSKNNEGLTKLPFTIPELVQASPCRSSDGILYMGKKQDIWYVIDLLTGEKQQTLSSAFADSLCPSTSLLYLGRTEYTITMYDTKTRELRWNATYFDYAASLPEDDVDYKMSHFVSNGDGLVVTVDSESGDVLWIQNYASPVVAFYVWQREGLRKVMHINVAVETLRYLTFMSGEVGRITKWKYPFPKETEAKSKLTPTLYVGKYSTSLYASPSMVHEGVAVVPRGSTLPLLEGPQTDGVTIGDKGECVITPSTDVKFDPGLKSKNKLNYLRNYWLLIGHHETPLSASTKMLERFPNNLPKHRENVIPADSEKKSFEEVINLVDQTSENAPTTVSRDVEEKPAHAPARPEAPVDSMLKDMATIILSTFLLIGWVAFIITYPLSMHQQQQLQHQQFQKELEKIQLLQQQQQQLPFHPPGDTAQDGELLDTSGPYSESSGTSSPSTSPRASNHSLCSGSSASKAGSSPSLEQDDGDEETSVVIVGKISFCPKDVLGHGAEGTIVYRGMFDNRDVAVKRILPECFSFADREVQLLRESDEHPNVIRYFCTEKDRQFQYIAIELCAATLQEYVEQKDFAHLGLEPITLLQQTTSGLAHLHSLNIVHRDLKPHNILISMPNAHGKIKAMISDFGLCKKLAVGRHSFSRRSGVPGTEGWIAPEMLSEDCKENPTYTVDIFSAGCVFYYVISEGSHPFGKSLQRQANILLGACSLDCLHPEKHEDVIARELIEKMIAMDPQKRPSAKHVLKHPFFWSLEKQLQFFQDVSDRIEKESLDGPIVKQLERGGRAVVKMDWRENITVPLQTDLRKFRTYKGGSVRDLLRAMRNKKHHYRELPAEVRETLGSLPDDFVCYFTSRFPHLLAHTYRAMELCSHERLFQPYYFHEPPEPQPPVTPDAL
value_type: EC50

sample_smiles: CCc1cc(-c2cc(OC)c(NS(=O)(=O)c3ccccc3Cl)nn2)cc2cnc(N[C@H]3CC[C@H](N)CC3)nc12
assay_value: 50 to 100 nM
--
sample_smiles: CCc1cc(-c2ccc(NS(=O)(=O)c3ccccc3Cl)c(F)c2)cc2cnc(N[C@H]3CC[C@H](NC)CC3)nc12
assay_value: ≤ 5 nM
--
sample_smiles: CCc1cc(-c2ccc(NS(=O)(=O)c3ccccc3Cl)cc2OC)cc2cnc(N[C@H]3CC[C@H](N)CC3)nc12.O=CO
assay_value: ≤ 5 nM
--
sample_smiles: CCc1cc(-c2ccc(NS(=O)(=O)c3ccccc3OC)nc2OC)cc2cnc(N[C@H]3CC[C@H](N)CC3)nc12
assay_value: ≤ 5 nM
--
sample_smiles: CCc1cc(-c2ccc(NS(=O)(=O)c3ccccc3Cl)c(F)c2)cc2cnc(N[C@@H]3CCC[C@H](N)C3)nc12
assay_value: > 100 nM
--
sample_smiles: CCc1cc(-c2ncc(NS(=O)(=O)c3ccccc3Cl)nc2C)cc2cnc(N[C@H]3CC[C@H](N)CC3)nc12
assay_value: ≤ 5 nM
--
sample_smiles: N[C@H]1CC[C@H](Nc2ncc3cc(-c4ccc(NS(=O)(=O)c5ccccc5Cl)cc4)ccc3n2)CC1
assay_value: ≤ 5 nM
--
sample_smiles: CCc1cc(-c2cnc(NS(=O)(=O)c3ccccc3Cl)c(F)c2)cc2cnc(N[C@H]3CC[C@H](N)CC3)nc12.O=CO
assay_value: ≤ 5 nM
--
sample_smiles: CCCc1cc(-c2cc(NS(=O)(=O)c3ccccc3Cl)nn2C)cc2cnc(N[C@H]3CC[C@H](N)CC3)nc12
assay_value: 5 to 50 nM
--
sample_smiles: CCc1cc(-c2ccc(NS(=O)(=O)c3ccccc3Cl)nc2OC(F)(F)F)cc2cnc(N[C@H]3CC[C@H](N)CC3)nc12
assay_value: ≤ 5 nM
--
sample_smiles: CCc1cc(-c2cc(NS(=O)(=O)c3ccccc3Cl)n[nH]2)cc2cnc(N[C@H]3CC[C@H](N)CC3)nc12.O=CO
assay_value: > 100 nM
--
sample_smiles: CCc1cc(-c2cnc(NS(=O)(=O)c3ccccc3Cl)nc2OC)cc2cnc(N[C@H]3CC[C@H](N)CC3)nc12.O=CO
assay_value: ≤ 5 nM
--
sample_smiles: CCc1cc(-c2nnc(NS(=O)(=O)c3ccccc3Cl)cc2OC)cc2cnc(N[C@H]3CC[C@H](N)CC3)nc12.O=CO
assay_value: 5 to 50 nM
--
sample_smiles: CCc1cc(-c2ccc(NS(=O)(=O)c3ccccc3Cl)nn2)cc2cnc(N[C@H]3CC[C@H](N)CC3)nc12.O=CO
assay_value: ≤ 5 nM
--
sample_smiles: NC12CCC(Nc3ncc4cc(-c5ccc(NS(=O)(=O)c6ccccc6Cl)c(F)c5)ccc4n3)(CC1)CC2
assay_value: ≤ 5 nM

# credit: patent US20180346446A1
